# Test system: PANC-1 cell line
# test.description: MTT cytotoxicity assay, 48 h, alone and in combination (IC50 and Combination Index)
# Format: cell-based
# protocol.conditions: Homo sapiens, PANC-1, SEQ ID NO: 1 at […]; read-out: IC50 of Gemcitabine
experimental.endpoint: IC50 (µM)
Could you give me the number in µM? Just the number is fine.

Specify measured IC50 for Nc1ccn([C@@H]2O[C@H](CO)[C@@H](O)C2(F)F)c(=O)n1 [Gemcitabine, reference compound] .
15.9

###

# Test system: PANC-1 cell line
# test.description: MTT cytotoxicity assay, 48 h, alone and in combination (IC50 and Combination Index)
# Type: cell-based
# protocol.conditions: Homo sapiens, PANC-1, read-out: IC50 of 5-FU, SEQ ID NO: 1 at 5 μg/mL
experimental.endpoint: IC50 (nM)
Write it as a number; the unit nM goes unstated.

Query IC50 for O=c1[nH]cc(F)c(=O)[nH]1 [5-FU, 5-Fluorouracil, reference compound]
1410

###

# Test system: PA-1 cell line
# test.description: MTT cytotoxicity assay, 48 h, alone and in combination (IC50 and Combination Index)
# Assay type: cell-based
# protocol.conditions: SEQ ID NO: 1 at 20 μg/mL; read-out: IC50 of Cisplatin
experimental.endpoint: pIC50
pIC50 here: minus log base 10 of the concentration, concentration in moles per litre.

Specify measured pIC50 for N.N.[Cl][Pt][Cl] [Cisplatin, reference compound] .
10.00

###

# Tested on: KB cell line
# test.description: MTT cytotoxicity assay, 48 h, alone and in combination (IC50 and Combination Index)
# Type: cell-based
# protocol.conditions: Homo sapiens, KB, read-out: IC50 of 5-FU, SEQ ID NO: 1 at 20 μg/mL
experimental.endpoint: pIC50
Conceptually, pIC50 converts a concentration in mol/L into minus its log10.

With KB cell line as the test system, provide measured pIC50 for this compound: O=c1[nH]cc(F)c(=O)[nH]1 [5-FU, 5-Fluorouracil, reference compound]
10.87

###

# Test system: T24 cell line
# test.description: MTT cytotoxicity assay, 48 h, alone and in combination (IC50 and Combination Index)
# Type: cell-based
# protocol.conditions: SEQ ID NO: 1 at 80 μg/mL; read-out: IC50 of Cisplatin
experimental.endpoint: IC50 (nM)
The reply should contain only the number, in nM.

Look up and report measured IC50 for this entry: N.N.[Cl][Pt][Cl] [Cisplatin, reference compound]
13.4

###

# Test system: PANC-1 cell line
# test.description: MTT cytotoxicity assay, 48 h, alone and in combination (IC50 and Combination Index)
# Type: cell-based
# protocol.conditions: Homo sapiens, PANC-1, read-out: IC50 of 5-FU, SEQ ID NO: 1 at 40 μg/mL
experimental.endpoint: IC50 (µM)
Reply with just the number (in µM).

State, in one line, measured IC50 of O=c1[nH]cc(F)c(=O)[nH]1 [5-FU, 5-Fluorouracil, reference compound]
8.45

###

# System: KB cell line
# test.description: MTT cytotoxicity assay, 48 h, alone and in combination (IC50 and Combination Index)
# Type: cell-based
# protocol.conditions: Homo sapiens, KB, read-out: IC50 of 5-FU, SEQ ID NO: 1 at 0 μg/mL
experimental.endpoint: IC50 (nM)
Unit nM implied. Number only.

Give the reported IC50 for this molecule. O=c1[nH]cc(F)c(=O)[nH]1 [5-FU, 5-Fluorouracil, reference compound]
15
